# methodNotes: chemical genetic growth profiling, strain panel (AID 1159580);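 note: tested at 20 µM; growth read once vehicle control cultures reached saturation at 30 °C; 1 = growth at the plate median or of vehicle wells; lower values mean less growth of the strain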
# studyConditions: S. cerevisiae deletion strains, growth OD, locus YIL125W, strain kgd1
Hit rate of the full screen: of about 5,500 compounds, about 2,000 (36%) were called active. Another 18% or so got no clear call; they are omitted. Cut-off read from the data, not from the text of the source: active = normalized growth mostly below about 0.91 (no sharp cut-off); inconclusive = no clear call, values can overlap the other calls; inactive = mostly above about 0.92. This is one part of the list.
// allowed return values: t (active), f (inactive)

compound	labelClass
Oc1c(I)cc(I)c2cccnc12	t
O=C(OC1Cc2c(O)cc(O)cc2OC1c1cc(O)c(O)c(O)c1-c1c(C2Oc3cc(O)cc(O)c3CC2OC(=O)c2cc(O)c(O)c(O)c2)cc(O)c(O)c1O)c1cc(O)c(O)c(O)c1 (stereo unspecified)	f
CC(C)N(C(=O)SCC(Cl)=C(Cl)Cl)C(C)C	f

Next, consider the following compound.
query: Short answer needed: outcome of this test for C=C[C@@H](C1=CC(=O)C(OC)=C(OC)C1=O)c1ccccc1 ?
result: t

---

# methodNotes: chemical genetic growth profiling, strain panel (AID 1159580)
# studyConditions: S. cerevisiae deletion strains, growth OD, locus YDL101C, strain DUN1, hits give low values
Among all 5,500 compounds or so, about 2,000 (36%) were called active. About 18% were inconclusive and are not listed. Some of the results follow.
# maps each entry to its normalized growth
No unit in the answer, please; the number alone is enough.

Some compounds with recorded normalized growth:
compound	normalized growth
CCCCC(CC)CN1CN(CC(CC)CCCC)CC(C)(N)C1 (centres undefined)	0.417
CC(C)(C)NS(=O)(=O)NC(C)(C)C	0.977
CN1C(CC(=O)c2ccccc2)CCCC1CC(O)c1ccccc1 (centres undefined)	1.01

query: So what's the measured normalized growth for this one? CC(=O)N/C(=C/c1ccc2c(c1)OCO2)C(=O)O
result: 1

query: So what's the measured normalized growth for this one? CC(C)(C)NCC(O)c1ccccc1Cl (centres undefined)
result: 0.987

query: So what's the measured normalized growth for this one? NCC(O)c1ccc(O)cc1 (centres undefined)
result: 0.987

query: So what's the measured normalized growth for this one? NC[C@H](O)c1ccc(O)c(O)c1
result: 1.01

query: So what's the measured normalized growth for this one? O=[N+]([O-])/C=C/c1ccc(F)cc1
result: 0.107

query: So what's the measured normalized growth for this one? CC(C)NCC(O)c1ccc(O)c(O)c1 (centres undefined)
result: 1.01

query: So what's the measured normalized growth for this one? Oc1c(I)cc(I)c2cccnc12
result: 0.084

query: So what's the measured normalized growth for this one? CSc1ccc(/C=C(\C)[N+](=O)[O-])cc1
result: 0.1

query: So what's the measured normalized growth for this one? CC(=O)Oc1ccc(Cl)c2cccnc12
result: 0.0607

query: So what's the measured normalized growth for this one? C/C=C/c1ccc2c(c1)OCO2
result: 1.02

query: So what's the measured normalized growth for this one? C/C(=C\c1ccc2c(c1)OCO2)[N+](=O)[O-]
result: 0.101

---

# methodNotes: chemical genetic growth profiling, strain panel (AID 1159580)
# studyConditions: S. cerevisiae deletion strains, growth OD, locus YMR078C, strain ctf18
Out of some 5,500 compounds screened, about 2,000 (36%) were called active. Another 18% or so got no clear call; they are omitted. Cut-off read from the data, not from the text of the source: active = normalized growth mostly below about 0.91 (no sharp cut-off); inconclusive = no clear call, values can overlap the other calls; inactive = mostly above about 0.92. Some of the results follow.
// allowed return values: active, inactive

compound	labelClass
O=C(O)CF	inactive
CC1(C)C(O)CC(O)C2(C)C1CC(=O)C1(C)C2CCC2(C)C(C(=O)O)OC(=O)C3OC321 (stereo not drawn)	inactive
COc1cc2c(c(OC)c1OC)-c1ccc(O)c(=O)cc1[C@@H](NC(C)=O)CC2	inactive

Next, consider the following compound.
query: Short answer needed: outcome of this test for NC[C@H](O)c1ccc(O)c(O)c1 ?
result: inactive

---

# methodNotes: chemical genetic growth profiling, strain panel (AID 1159580);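 note: tested at 20 µM; growth read once vehicle control cultures reached saturation at 30 °C; 1 = growth at the plate median or of vehicle wells; lower values mean less growth of the strain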
# studyConditions: S. cerevisiae deletion strains, growth OD, locus YLR258W, strain gsy2, hits give low values
The whole screen tested about 5,500 compounds, of which about 2,000 (36%) were called active. Not shown: some 18% with an inconclusive outcome. This is one part of the list.
valueType: normalized growth
No unit in the answer, please; the number alone is enough.

Some compounds with recorded normalized growth:
compound	measuredValue
CS(=O)(=O)CCCCN=C=S	0.735
CO[C@H]1/C=C/O[C@@]2(C)Oc3c(C)c(O)c4c(O)c(c(/C=N/N5CCN(C)CC5)c(O)c4c3C2=O)NC(=O)/C(C)=C\C=C\C(C)[C@H](O)[C@@H](C)[C@@H](O)[C@@H](C)[C@@H](OC(C)=O)[C@@H]1C (stereo partly drawn)	1.02

# ---- query compound ----
query: So what's the measured normalized growth for this one? CO[C@H]1/C=C/O[C@@]2(C)Oc3c(C)c(O)c4c(O)c(c5c(nc6cc(C)ccn65)c4c3C2=O)NC(=O)/C(C)=C\C=C\[C@H](C)[C@H](O)[C@@H](C)C(O)[C@@H](C)[C@H](OC(C)=O)[C@@H]1C (stereo partly drawn)
result: 1.04

---

# methodNotes: chemical genetic growth profiling, strain panel (AID 1159580);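 note: tested at 20 µM; growth read once vehicle control cultures reached saturation at 30 °C; 1 = growth at the plate median or of vehicle wells; lower values mean less growth of the strain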
# studyConditions: S. cerevisiae deletion strains, growth OD, locus YLR357W, strain rsc2, hits give low values
The campaign covered roughly 5,500 compounds. About 2,000 (36%) were called active. About 18% were inconclusive and are not listed. This is one part of the list.
# note: exactly 1 is not below, so it is class 0; use class 1 for normalized growth strictly under it

For orientation, consider the following solved cases.
compound	labelClass
CN1C(CC(=O)c2ccccc2)CCCC1CC(O)c1ccccc1 (configuration not stated)	class 1
O=C(NC(=O)c1c(F)cccc1F)Nc1ccc(Cl)cc1	class 0
CC1(C)CCCC2(C)C3C1[C@@H](O)C2(C)C[C@H]3O (some centres not stated)	class 0
C=C(NC(=O)C(=C)NC(=O)c1csc(C2=NC3c4csc(n4)C4NC(=O)c5csc(n5)C(C(C)(O)C(C)O)NC(=O)C5CSC(=N5)C(=CC)NC(=O)C(C(C)O)NC(=O)c5csc(n5)C3(CC2)NC(=O)C(C)NC(=O)C(=C)NC(=O)C(C)NC(=O)C(C(C)CC)NC2C=Cc3c(C(C)O)cc(nc3C2O)C(=O)OC4C)n1)C(N)=O (configuration not stated)	class 1

query: Strictly below 1: is that where normalized growth of CC(=O)O[C@@H]1C[C@@]2(C)[C@H](c3ccoc3)C[C@H]3O[C@]32[C@]2(C)C(=O)C(O)=C3C(C)(C)C(=O)C=C[C@]3(C)C12 (some centres not stated) sits?
result: class 0

query: Strictly below 1: is that where normalized growth of CO[C@H]1/C=C/O[C@@]2(C)Oc3c(C)c(O)c4c(O)c(c(/C=N/N5CCN(C)CC5)c(O)c4c3C2=O)NC(=O)/C(C)=C\C=C\C(C)[C@H](O)[C@@H](C)[C@@H](O)[C@@H](C)[C@@H](OC(C)=O)[C@@H]1C (some centres not stated) sits?
result: class 0

query: Strictly below 1: is that where normalized growth of C=CC(C1=CC(=O)C(OC)=CC1=O)c1ccc(OC)cc1 (configuration not stated) sits?
result: class 0

query: Strictly below 1: is that where normalized growth of CC1(C)C(=O)C=C[C@@]2(C)C1=C(O)C(=O)[C@]1(C)C2CC[C@@]2(C)[C@H](c3ccoc3)C[C@H]3O[C@]321 (some centres not stated) sits?
result: class 0

query: Strictly below 1: is that where normalized growth of CO[C@H]1/C=C/O[C@@]2(C)Oc3c(C)c(O)c4c(O)c(c5c(nc6cc(C)ccn65)c4c3C2=O)NC(=O)/C(C)=C\C=C\[C@H](C)[C@H](O)[C@@H](C)C(O)[C@@H](C)[C@H](OC(C)=O)[C@@H]1C (some centres not stated) sits?
result: class 0

query: Strictly below 1: is that where normalized growth of O=C(O)c1ccccc1Nc1cccc(C(F)(F)F)c1 sits?
result: class 1

query: Strictly below 1: is that where normalized growth of Nc1ccc(C(=O)NCC(=O)O)cc1 sits?
result: class 0

query: Strictly below 1: is that where normalized growth of O=C(O)/C=C/C=C/c1ccccc1 sits?
result: class 1

---

# methodNotes: chemical genetic growth profiling, strain panel (AID 1159580);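 note: tested at 20 µM; growth read once vehicle control cultures reached saturation at 30 °C; 1 = growth at the plate median or of vehicle wells; lower values mean less growth of the strain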
# studyConditions: S. cerevisiae deletion strains, growth OD, locus YBR135W, strain CKS1, hits give low values
The whole screen tested about 5,500 compounds, of which about 2,000 (36%) were called active. Roughly 18% stayed inconclusive and do not appear here. Some of the results follow.
# maps each entry to its normalized growth
No unit in the answer, please; the number alone is enough.

Some compounds with recorded normalized growth:
compoundSmiles	measuredValue
COc1ccc(C(=O)CSC2=NCCc3ccccc32)cc1	0.959
O=C(NC(=S)Nc1cccc(C(F)(F)F)c1)c1ccc2nonc2c1	0.93
FC(F)(F)c1cccc(NNC(=S)Nc2ccccc2)c1	1
O=C(NCc1ccncc1)c1ccc(-n2cccn2)cc1	0.982
O=[N+]([O-])c1ccccc1CS(=O)(=O)c1nc2ccccc2s1	0.89

query: So what's the measured normalized growth for this one? Fc1cccc(F)c1NC(=S)Nc1cc(C(F)(F)F)cc(C(F)(F)F)c1
result: 0.981

query: So what's the measured normalized growth for this one? FC(F)(F)c1cccc(NC(=S)Nc2ccccc2)c1
result: 0.975

query: So what's the measured normalized growth for this one? N#CC(C#N)=C/C=C(/Sc1nc2ccccc2s1)c1ccc(Br)cc1
result: 0.189

query: So what's the measured normalized growth for this one? CC(=O)Nc1ccc(/C=C/[N+](=O)[O-])cc1
result: 0.976

query: So what's the measured normalized growth for this one? CCCc1c(C(=O)NNc2cccc(Cl)c2)cnn1-c1ccccc1
result: 0.987

query: So what's the measured normalized growth for this one? Cc1cc(Br)ccc1-n1c(Sc2c([N+](=O)[O-])cc(C(F)(F)F)cc2[N+](=O)[O-])nc2ccccc2c1=O
result: 0.984
